# Measurement description: FBS protein binding
# Format: in vitro ADME, bovine
# Experimental setup: bovine, FBS protein binding (%) Recovery, 22 h incubation with the serum; mean ± SD, triplicate
Quantity: recovery at 22 h (%)
Express the result in % but write the number alone.

Enquiry: For the compound CC(/C=C/C(C)=C/[C@@H]1Cc2nc(cs2)[C@@H](C)C[C@@H](N)CC(=O)O[C@@H](C)C/C(C)=C/C=C\C(=O)O1)=C\CN(C)C [PatA (1), Pateamine A, reference compound] , report recovery at 22 h.
Return: 86.2

----------
# Measurement description: FBS protein binding
# Type: in vitro ADME, bovine
# Experimental setup: bovine, serum
Quantity: fraction unbound at 22 h

Enquiry: Give me measured fraction unbound at 22 h, please, for this compound: CC(/C=C/C(C)=C/[C@@H]1Cc2nc(cs2)[C@@H](C)C[C@@H](N)CC(=O)O[C@@H](C)C/C(C)=C/C=C\C(=O)O1)=C\CN(C)C [PatA (1), Pateamine A, reference compound]
Return: 0.013

Hello, the source for this data is paper PMC8785363, in case you need it.
